Examples of compounds with documented logD follow.
Test: Experimental LogD (partition coefficient)
Settings: not stated, Partition Coeff LogD

Example results:
[
  {
    "COMPOUND": "CC(=O)N[C@@H](CCCCN=[N+]=[N-])C(=O)NCCC(=O)N[C@@H](CC(C)C)C(=O)N(C)[C@H](C(=O)N[C@@H](Cc1ccccc1)C(=O)N[C@]1(C)CCCCCCC=CCCC[C@@](C)(C(=O)N[C@@H](CO)C(=O)N[C@@H](C)C(=O)N[C@@H](C)C(N)=O)NC(=O)[C@H](CC2CCC2)NC(=O)[C@H](CCC(N)=O)NC(=O)[C@H](C)NC(=O)[C@H](Cc2c[nH]c3ccccc23)NC(=O)[C@H](Cc2ccc(O)cc2)NC(=O)[C@H](CCC(=O)O)NC1=O)[C@@H](C)O",
    "logD": 2.73
  },
  {
    "COMPOUND": "CC(=O)N[C@@H](CCCCN=[N+]=[N-])C(=O)NCCC(=O)N[C@@H](CC(C)C)C(=O)N[C@H](C(=O)N[C@@H](Cc1ccccc1)C(=O)N[C@]1(C)CCCCCCC=CCCC[C@@](C)(C(=O)N[C@@H](CO)C(=O)N[C@@H](C)C(=O)N[C@@H](C)C(N)=O)NC(=O)[C@H](CC2CCC2)NC(=O)[C@H](CCC(N)=O)NC(=O)[C@H](C)NC(=O)[C@H](Cc2c[nH]c3ccccc23)NC(=O)[C@H](Cc2ccc(O)cc2)NC(=O)[C@H](Cc2c[nH]cn2)NC1=O)[C@@H](C)O [MP-175, AZIDE-ATSP-7041 (E5H)]",
    "logD": 3.42
  }
]

(Q) // query logD value for entry CC(=O)N[C@@H](CCCCN=[N+]=[N-])C(=O)NCCC(=O)N[C@@H](CC(C)C)C(=O)N[C@H](C(=O)N[C@@H](Cc1ccccc1)C(=O)N[C@]1(C)CCCCCCC=CCCC[C@@](C)(C(=O)N[C@@H](CO)C(=O)N[C@@H](C)C(=O)N[C@@H](C)C(N)=O)NC(=O)[C@H](CC2CCC2)NC(=O)[C@H](CCC(N)=O)NC(=O)[C@H](C)NC(=O)[C@H](Cc2c[nH]c3ccccc23)NC(=O)[C@H](CCC(=O)O)NC(=O)[C@H](CCC(=O)O)NC1=O)[C@@H](C)O
(A) 2.25
